- method-description: chemical genetic growth profiling, strain panel (AID 1159580);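 further: tested at 20 µM; growth read once vehicle control cultures reached saturation at 30 °C; 1 = growth at the plate median or of vehicle wells; lower values mean less growth of the strain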
- conditions-used: S. cerevisiae deletion strains, growth OD, locus YNL183C, strain NPR1
About 2,000 (36%) of roughly 5,500 compounds were called active. Another 18% or so got no clear call; they are omitted. No stated cut-off is given here; in the data, active means normalized growth mostly below about 0.91 (no sharp cut-off); inconclusive means no clear call, values can overlap the other calls; inactive means mostly above about 0.92. The list shows a part of the results.
Classes used: yes (1) (active), no (0) (inactive)

molecule | qualitative-label
C[C@]12CCC3C(CC[C@H]4CC(=O)CC[C@]34C)C1CCC2=O (stereo partly specified) | no (0)
CN1Cc2c(N)cccc2C(c2ccccc2)C1 (stereo unspecified) | no (0)
O=c1cc(-c2ccc(O)cc2)oc2cc(O[C@@H]3O[C@H](CO)[C@@H](O)[C@H](O)[C@H]3O[C@@H]3OC[C@](O)(CO)[C@H]3O)cc(O)c12 | no (0)
CC(O)Cn1cnc2c1c(=O)n(C)c(=O)n2C (stereo unspecified) | no (0)
O=C(NCc1ccc(F)c(Cl)c1)Nc1csc([N+](=O)[O-])c1 | no (0)
CCCCCc1ccc(-c2nc(SCC(C)=O)n[nH]2)cc1 | no (0)
CSc1sc(-c2ccn[nH]2)c(-c2ccccc2)c1C#N | no (0)
CCCCc1ccc(N=CNO)c(C)c1 | yes (1)
CCOC(=O)C(O)(c1ccc(NC(=O)Nc2ccc(Cl)cc2)cc1)C(F)(F)F (stereo unspecified) | no (0)
c1coc(CNc2ncnc3nc[nH]c23)c1 | no (0)
C[C@H]1C(=O)O[C@@H]2CCN3CC=C(COC(=O)[C@](C)(O)[C@]1(C)O)[C@H]23 | no (0)

Hey, just so you know, these numbers are from PubChem BioAssay AID1159580.
